System: Cupriavidus metallidurans CH34
PROTOCOL_NOTES: Minimum inhibitory concentration (MIC) of heavy metals in agar plates, strain CH34
Format: cell-based
MEASUREMENT_CONTEXT: Tris mineral salts medium, increasing metal concentrations, parental strain CH34
Let's look at some compounds and their measured MIC, strain CH34.
Provide only the numeric value, understood in µg/g.

Look at this compound and give its reported MIC, strain CH34. [Cu+2]
240

Fill blank: measured MIC, strain CH34 of the compound [Cd+2] is ____.
100

Give its MIC, strain CH34 value. Item: [Hg+2]
10
